Measured pEC50 by item
target: PRC2-EED-I363M (EED/EZH2/SUZ12) (Homo sapiens, UniProt O75530+Q15910, I363M); construct: the full lengths of two components of the PRC2 complex, EED(1–441) and EZH2(1–751); EED(1–441) and EZH2(1–751) were cloned into pFastBac-Dual; assay: Methyltransferase scintillation proximity assay, H3 (21-44) peptide substrate; conditions: 20 nM enzyme, 5 µM 3H-SAM, 2 µM biotin-H3 (21-44), compound up to 100 µM, 30 min, 23 °C; read-out: EC50 for activation of PRC2-EED-I363M
Sequence (O75530 whole entry I363M): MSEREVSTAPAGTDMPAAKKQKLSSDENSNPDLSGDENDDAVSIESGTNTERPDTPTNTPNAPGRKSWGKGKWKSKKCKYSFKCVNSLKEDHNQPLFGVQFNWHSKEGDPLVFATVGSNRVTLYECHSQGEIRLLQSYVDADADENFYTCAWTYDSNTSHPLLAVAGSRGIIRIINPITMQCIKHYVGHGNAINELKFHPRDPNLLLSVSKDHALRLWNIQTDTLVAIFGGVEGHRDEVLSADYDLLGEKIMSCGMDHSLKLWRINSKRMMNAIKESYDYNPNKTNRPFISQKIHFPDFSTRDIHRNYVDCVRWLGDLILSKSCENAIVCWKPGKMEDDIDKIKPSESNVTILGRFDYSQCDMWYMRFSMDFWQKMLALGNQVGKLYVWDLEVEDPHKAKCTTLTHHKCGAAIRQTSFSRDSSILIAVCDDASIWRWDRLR
Sequence (Q15910 1-751 isoform Q15910-2, stated change not applied): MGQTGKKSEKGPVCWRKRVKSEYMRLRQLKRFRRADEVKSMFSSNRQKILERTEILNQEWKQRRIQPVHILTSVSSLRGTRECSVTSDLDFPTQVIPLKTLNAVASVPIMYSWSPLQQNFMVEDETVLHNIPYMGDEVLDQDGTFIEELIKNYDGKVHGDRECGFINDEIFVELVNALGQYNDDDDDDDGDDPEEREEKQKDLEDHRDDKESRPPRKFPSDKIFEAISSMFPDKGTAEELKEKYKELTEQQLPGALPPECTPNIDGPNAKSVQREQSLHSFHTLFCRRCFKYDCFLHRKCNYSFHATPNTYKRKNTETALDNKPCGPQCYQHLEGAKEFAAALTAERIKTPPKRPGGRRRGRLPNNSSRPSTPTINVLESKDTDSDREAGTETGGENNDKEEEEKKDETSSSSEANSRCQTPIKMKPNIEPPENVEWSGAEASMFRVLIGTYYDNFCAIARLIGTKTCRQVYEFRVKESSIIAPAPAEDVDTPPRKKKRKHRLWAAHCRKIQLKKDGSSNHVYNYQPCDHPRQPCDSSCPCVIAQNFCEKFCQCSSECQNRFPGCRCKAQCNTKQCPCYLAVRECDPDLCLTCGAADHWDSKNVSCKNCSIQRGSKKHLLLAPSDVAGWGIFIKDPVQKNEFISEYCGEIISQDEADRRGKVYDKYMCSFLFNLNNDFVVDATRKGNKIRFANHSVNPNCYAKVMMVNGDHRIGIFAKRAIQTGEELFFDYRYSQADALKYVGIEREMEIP
Sequence (Q15022 whole entry partner): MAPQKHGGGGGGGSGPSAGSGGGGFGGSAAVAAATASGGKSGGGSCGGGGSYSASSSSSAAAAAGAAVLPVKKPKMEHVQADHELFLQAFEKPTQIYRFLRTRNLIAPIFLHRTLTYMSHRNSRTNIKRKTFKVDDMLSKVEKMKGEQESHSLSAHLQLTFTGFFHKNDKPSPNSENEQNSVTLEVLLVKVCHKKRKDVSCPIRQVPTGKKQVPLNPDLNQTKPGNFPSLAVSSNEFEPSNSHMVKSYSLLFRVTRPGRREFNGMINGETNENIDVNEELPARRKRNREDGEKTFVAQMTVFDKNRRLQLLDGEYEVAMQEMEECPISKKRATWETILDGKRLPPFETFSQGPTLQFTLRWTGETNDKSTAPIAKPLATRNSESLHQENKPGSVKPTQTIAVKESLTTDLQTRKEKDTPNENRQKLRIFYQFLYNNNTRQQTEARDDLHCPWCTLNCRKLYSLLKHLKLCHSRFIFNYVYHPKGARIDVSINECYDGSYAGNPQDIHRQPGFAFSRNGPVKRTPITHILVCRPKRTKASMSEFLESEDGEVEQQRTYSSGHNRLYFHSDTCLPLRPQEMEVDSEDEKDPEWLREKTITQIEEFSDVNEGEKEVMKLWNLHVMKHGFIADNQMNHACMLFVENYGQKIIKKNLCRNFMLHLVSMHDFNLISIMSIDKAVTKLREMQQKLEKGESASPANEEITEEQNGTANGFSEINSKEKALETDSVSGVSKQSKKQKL
Where a SMILES comes first, the peptide text is derived from it. [ ]: non-standard residue; d: D form. Lys(Me3) = C[N+](C)(C)CCCC[C@H](N)C(=O)O
Quick note: pEC50 values are minus log10 of concentrations in mol/L.

CC(C)C[C@H](NC(=O)[C@H](Cc1ccccc1)NC(=O)[C@H](CCCC[N+](C)(C)C)NC(=O)[C@H](CCCNC(=N)N)NC(=O)[C@@H]1CCCN1)C(N)=O [compound 1] (H-PR[Lys(Me3)]FL-NH2) :: 5.64

Look at this compound and give its reported pEC50. CC(C)C[C@H](NC(=O)[C@H](Cc1ccccc1)NC(=O)[C@H](CCCC[N+](C)(C)C)NC(=O)[C@H](CCCCN)NC(=O)[C@@H]1CCCN1)C(N)=O [compound 2] (H-PK[Lys(Me3)]FL-NH2)
5.62

Hello, the source for this data is paper PMC6484020, in case you need it.
